measuredProperty: melting point

Worked examples follow.
Cc1cc(C(F)(F)F)ccc1C(=O)Nc1ccc(Oc2ccc3cc(C(=O)N4CCN(Cc5ccc(OCC(F)(F)F)cc5)CC4)n(C)c3c2)nc1.Cl	217.4 to 218.3 °C
CC(C)Oc1ccc(CN2CCN(C(=O)c3cc4ccc(Oc5ccc(NC(=O)c6ccc(C(F)(F)F)cc6F)cn5)cc4n3C)CC2)cc1.Cl	267.6 to 268.2 °C
Br.CN(C(=O)c1ccc(Cl)c(Cl)c1)c1ccc(Oc2ccc3cc(C(=O)N4CCN(Cc5ccc(OCCF)cc5)CC4)n(C)c3c2)nc1 [Example 482]	186.9 to 188.8 °C
Cc1cc(C)c(S(=O)(=O)Nc2ccc(Oc3ccc4cc(C(=O)N5CCN(Cc6ccc(OCC(F)(F)F)cc6)CC5)n(C)c4c3)nc2)c(C)c1.Cl	191.3 to 192.5 °C
Br.Br.CN(C(=O)c1ccc(C(F)(F)F)cc1)c1ccc(Oc2ccc3c(c2)cc(C(=O)N2CCN(Cc4cccnc4)CC2)n3C)nc1 [Example 559]	191 to 193 °C

Ask | Tell me measured melting point for Br.Br.Cn1c(C(=O)N2CCN(Cc3ccc(C#N)cn3)CC2)cc2cc(Oc3ccc(NC(=O)c4ccc(Cl)c(Cl)c4)cn3)ccc21 [Example 386] please.
Reply | 216 to 219 °C

Ask | Tell me measured melting point for Br.Cn1c(C(=O)N2CCN(Cc3ccc4c(c3)OCO4)CC2)cc2cc(Oc3ccc(NS(=O)(=O)c4ccc(C(F)(F)F)cc4)cn3)ccc21 [Example 65] please.
Reply | 210 to 212 °C

Ask | Tell me measured melting point for Cn1c(C(=O)N2CCN(C3CCOCC3)CC2)cc2cc(Oc3ccc(NS(=O)(=O)c4ccc(C(F)(F)F)cc4)cn3)ccc21 [Example 332] please.
Reply | 174 to 178 °C

Ask | Tell me measured melting point for Br.COc1ccc(CN2CCN(C(=O)c3cc4ccc(Oc5ccc(N(C)C(=O)c6ccc(C(F)(F)F)cc6)cn5)cc4n3C)CC2)cc1 [Example 322] please.
Reply | 233 to 235 °C

Ask | Tell me measured melting point for Br.CN(C(=O)c1ccc(C(F)(F)F)cc1)c1ccc(Oc2ccc3cc(C(=O)N4CCN(Cc5ccc(OC(F)F)cc5)CC4)n(C)c3c2)nc1 [Example 422] please.
Reply | 229 to 230 °C

Ask | Tell me measured melting point for Br.CCn1c(C(=O)N2CCN(Cc3ccc4c(c3)OCO4)CC2)cc2cc(Oc3ccc(N(C)C(=O)c4ccc(C(F)(F)F)cc4)cn3)ccc21 [Example 344] please.
Reply | 179 to 183 °C

Ask | Tell me measured melting point for Br.Br.CN(C(=O)c1ccc(C(F)(F)F)cc1)c1ccc(Oc2ccc3c(c2)cc(C(=O)N2CCN(Cc4ccncc4)CC2)n3C)nc1 [Example 548] please.
Reply | 196 to 198 °C

Ask | Tell me measured melting point for Cc1ccc(S(=O)(=O)N(C)c2ccc(Oc3ccc4cc(C(=O)N5CCN(Cc6ccc(OCC(F)(F)F)cc6)CC5)[nH]c4c3)nc2)cc1 [Example 41] please.
Reply | 184 to 184.2 °C

Ask | Tell me measured melting point for Br.CCOc1ccc(CN2CCN(C(=O)c3cc4ccc(Oc5ccc(N(C)C(=O)c6ccc(C(F)(F)F)cc6)cn5)cc4n3C)CC2)cc1 [Example 419] please.
Reply | 241 to 243 °C

Ask | Tell me measured melting point for `CN(C(=O)c1ccc(C(F)(F)F)cc1F)c1ccc(Oc2ccc3cc(C(=O)N4CCN(Cc5ccc(OC(F)F)cc5)CC4)n(C)c3c2)nc1.Cl` please.
Reply | 228.7 to 230.4 °C

Ask | Tell me measured melting point for COc1ccccc1/C=C/CN1CCN(C(=O)c2cc3cc(Oc4ccc(NC(=O)c5ccc(C(F)(F)F)cc5)cn4)ccc3n2C)CC1.CS(=O)(=O)O [Example 358] please.
Reply | 268 to 271 °C (dec.)

Ask | Tell me measured melting point for `CCCOc1ccc(CN2CCN(C(=O)c3cc4ccc(Oc5ccc(N(C)C(=O)c6ccc(C(F)(F)F)cc6F)cn5)cc4n3C)CC2)cc1.Cl` please.
Reply | 247.1 to 249.2 °C

Ask | Tell me measured melting point for Br.COc1cccc(CN2CCN(C(=O)c3cc4cc(Oc5ccc(NC(=O)c6ccc(C(F)(F)F)cc6)cn5)ccc4n3C)CC2)c1 [Example 353] please.
Reply | 231 to 233 °C

Ask | Tell me measured melting point for COc1ccc(CN2CCN(C(=O)c3cc4cc(Oc5ccc(N(C)C(=O)c6ccc(Cl)c(Cl)c6)cn5)ccc4n3C)CC2)cc1.O=C(O)/C=C\C(=O)O [Example 347] please.
Reply | 171 to 172 °C
